# targetUnderTest: EGFR del19/T790M/C797S (Homo sapiens, UniProt P00533, C797S/DEL746-750/T790M)
# Sequence (P00533 with tags, fused parts or gaps DEL746-750/T790M/C797S): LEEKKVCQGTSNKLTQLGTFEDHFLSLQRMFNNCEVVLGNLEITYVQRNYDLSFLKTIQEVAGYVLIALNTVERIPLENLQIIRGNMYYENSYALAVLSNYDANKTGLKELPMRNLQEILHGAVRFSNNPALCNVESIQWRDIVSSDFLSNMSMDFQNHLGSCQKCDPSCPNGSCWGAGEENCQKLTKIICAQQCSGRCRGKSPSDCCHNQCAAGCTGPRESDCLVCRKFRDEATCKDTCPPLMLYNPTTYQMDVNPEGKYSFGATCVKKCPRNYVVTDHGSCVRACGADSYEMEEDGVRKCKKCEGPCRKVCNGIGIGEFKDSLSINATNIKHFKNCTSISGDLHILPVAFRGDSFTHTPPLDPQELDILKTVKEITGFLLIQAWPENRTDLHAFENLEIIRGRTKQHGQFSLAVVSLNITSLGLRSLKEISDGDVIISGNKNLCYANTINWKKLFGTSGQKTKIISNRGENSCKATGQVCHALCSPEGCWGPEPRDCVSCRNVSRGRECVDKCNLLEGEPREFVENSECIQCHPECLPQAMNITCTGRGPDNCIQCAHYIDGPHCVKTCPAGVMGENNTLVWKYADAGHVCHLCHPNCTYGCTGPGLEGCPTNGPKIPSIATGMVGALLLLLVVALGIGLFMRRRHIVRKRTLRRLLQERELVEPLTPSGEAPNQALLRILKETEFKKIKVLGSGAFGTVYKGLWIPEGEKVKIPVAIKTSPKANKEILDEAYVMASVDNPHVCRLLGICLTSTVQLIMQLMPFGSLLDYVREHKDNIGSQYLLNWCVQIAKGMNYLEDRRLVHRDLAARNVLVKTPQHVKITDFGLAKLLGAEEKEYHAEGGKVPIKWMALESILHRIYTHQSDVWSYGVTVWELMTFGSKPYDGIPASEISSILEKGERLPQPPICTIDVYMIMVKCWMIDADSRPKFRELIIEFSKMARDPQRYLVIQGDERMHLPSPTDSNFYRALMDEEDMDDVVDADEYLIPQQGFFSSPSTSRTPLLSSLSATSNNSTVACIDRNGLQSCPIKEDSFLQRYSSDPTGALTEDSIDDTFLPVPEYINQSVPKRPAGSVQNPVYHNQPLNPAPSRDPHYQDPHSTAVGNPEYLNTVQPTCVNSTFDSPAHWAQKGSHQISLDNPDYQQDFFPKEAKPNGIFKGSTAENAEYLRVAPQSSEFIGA
# protocol: Biochemical EGFR kinase assay (Lance Ultra TR-FRET), triple mutant del19/T790M/C797S
# runConditions: IC50 del19/T790M/C797S (nM) 100 μM ATP, 100 μM ATP
measurementLabel: IC50 (nM)

1: Cn1cc(-c2nccc(Nc3cc(N[C@H]4CC[C@@](C)(O)CC4)c(-c4ccn(C(F)F)n4)cn3)n2)cn1
2: Cn1ccc(-c2cnc(Nc3ccnc(-c4cnn(S(=O)(=O)C5CC5)c4)n3)cc2NC[C@H]2CC[C@](C)(O)CC2)n1
3: CC1(C)CC(Nc2cc(Nc3ccnc(-c4cnn(S(=O)(=O)C5CC5)c4)n3)ncc2-c2ccn(C(F)F)n2)CCC1O (centres unmarked)
4: Cn1ccc(-c2cnc(Nc3ccnc(-c4cnn(S(=O)(=O)C5CC5)c4)n3)cc2NC2CCCC(NCCF)C2)n1 (centres unmarked)
5: C[C@]1(O)CC[C@@H](Nc2cc(Nc3ccnc(-c4cnn(S(=O)(=O)C5CC5)c4)n3)ncc2-c2nc(C(F)F)cs2)CC1
Task item: List the compounds shown above again, sorted by falling IC50 values. Returns: the labels arranged in the requested order.
Reply: 3, 1, 5, 2, 4

A: CC1(O)CCC(Nc2cc(Nc3ccnc(-c4cnn(C5CCCCO5)c4)n3)ncc2-c2ccn(C(F)F)n2)CC1 (centres unmarked)
B: O=S(=O)(C1CC1)n1cc(-c2nccc(Nc3cc(N[C@@H]4CC[C@H](O)C4)c(-c4ccn(C(F)F)n4)cn3)n2)cn1
C: CN(C)S(=O)(=O)n1cc(-c2nccc(Nc3cc(N[C@H]4CC[C@@](C)(O)CC4)c(-c4cc(C(F)(F)F)n(C)n4)cn3)n2)cn1
D: Cn1nc(-c2cnc(Nc3ccnc(-c4cnn(S(=O)(=O)C5CC5)c4)n3)cc2N[C@H]2CC[C@H](CCO)CC2)cc1C(F)(F)F
Task item: Number of compounds to sort: 4. Sort criterion: IC50, ascending. Returns: the labels arranged in the requested order.
Reply: B, C, A, D

a: O=S(=O)(C1CC1)n1cc(-c2nccc(Nc3cc(N[C@H]4CC[C@@H](CO)CC4)c(-c4ccn(C(F)F)n4)cn3)n2)cn1
b: O=S(=O)(C1CC1)n1cc(-c2nccc(Nc3cc(N[C@H]4CC[C@](O)(CO)CC4)c(-c4cc5n(n4)CCCC5)cn3)n2)cn1
Task item: Please tell me which of the two, a or b , has the higher reported IC50 value. State your choice using its label.
Reply: b
(b: 0.6 nM, a: 0.4 nM)

I: CN(C)C(=O)[C@H]1CC[C@@H](Nc2cc(Nc3ccnc(-c4cnn(S(=O)(=O)C5CC5)c4)n3)ncc2-c2ccn(C)n2)CC1
II: O=S(=O)(C1CC1)n1cc(-c2nccc(Nc3cc(NC[C@H]4CC[C@H](CO)CC4)c(-c4ccn(C(F)F)n4)cn3)n2)cn1
Task item: Sorting ascending by IC50, which comes first: I or II ? State your choice using its label.
Reply: I
(I: 0.4 nM, II: 1.1 nM)

###

# targetUnderTest: EGFR wildtype (WT) (Homo sapiens, UniProt P00533)
# Sequence (P00533 25-1210): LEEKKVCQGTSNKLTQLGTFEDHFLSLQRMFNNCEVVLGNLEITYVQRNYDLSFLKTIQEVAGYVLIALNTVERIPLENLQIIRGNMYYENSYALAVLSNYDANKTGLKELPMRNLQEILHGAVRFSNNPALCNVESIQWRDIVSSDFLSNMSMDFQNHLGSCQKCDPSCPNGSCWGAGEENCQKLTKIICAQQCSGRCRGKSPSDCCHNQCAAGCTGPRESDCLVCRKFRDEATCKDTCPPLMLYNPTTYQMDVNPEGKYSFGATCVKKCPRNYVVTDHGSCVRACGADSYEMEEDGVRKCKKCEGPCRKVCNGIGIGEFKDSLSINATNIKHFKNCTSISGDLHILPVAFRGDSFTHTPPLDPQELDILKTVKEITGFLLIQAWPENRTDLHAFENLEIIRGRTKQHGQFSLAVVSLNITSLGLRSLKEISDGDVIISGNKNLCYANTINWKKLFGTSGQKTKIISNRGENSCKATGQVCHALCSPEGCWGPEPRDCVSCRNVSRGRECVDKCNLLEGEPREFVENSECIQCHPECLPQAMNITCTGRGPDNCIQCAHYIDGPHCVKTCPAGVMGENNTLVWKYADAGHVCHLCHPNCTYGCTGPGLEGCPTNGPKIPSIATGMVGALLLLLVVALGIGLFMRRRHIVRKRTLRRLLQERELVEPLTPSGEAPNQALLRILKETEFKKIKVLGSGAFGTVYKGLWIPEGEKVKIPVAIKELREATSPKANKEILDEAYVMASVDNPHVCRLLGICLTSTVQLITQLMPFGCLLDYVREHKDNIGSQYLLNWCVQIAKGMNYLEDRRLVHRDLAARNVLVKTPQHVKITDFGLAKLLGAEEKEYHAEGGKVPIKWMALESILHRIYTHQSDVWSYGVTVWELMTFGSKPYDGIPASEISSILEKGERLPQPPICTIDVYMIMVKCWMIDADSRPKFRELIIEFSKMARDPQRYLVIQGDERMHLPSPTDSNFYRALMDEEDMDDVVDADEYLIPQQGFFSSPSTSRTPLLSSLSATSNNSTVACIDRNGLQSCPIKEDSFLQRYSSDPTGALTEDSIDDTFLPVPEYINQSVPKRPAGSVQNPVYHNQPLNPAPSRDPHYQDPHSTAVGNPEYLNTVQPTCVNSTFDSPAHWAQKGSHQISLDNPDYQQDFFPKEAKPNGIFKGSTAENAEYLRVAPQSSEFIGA
# protocol: Biochemical EGFR kinase assay (Lance Ultra TR-FRET), wildtype
# runConditions: Km ATP; read-out: IC50 WT (nM) Km ATP
measurementLabel: IC50 (nM)

// known answers, use as guide
| moleculeSmiles | endpointValue |
| --- | --- |
| C[C@]1(O)CC[C@@H](Nc2cc(Nc3ccnc(-c4cnn(S(=O)(=O)C5CC5)c4)n3)ncc2-c2ccn(CC(F)F)n2)CC1 | 5 |
| COc1ncc(-c2nccc(Nc3cc(N[C@H]4CC[C@@](C)(O)CC4)c(-c4ccn(C(F)F)n4)cn3)n2)cc1F | 2110 |
| C[C@]1(O)CC[C@@H](Nc2cc(Nc3nc(-c4cnn(S(=O)(=O)C5CC5)c4)ncc3F)ncc2-c2ccn(C(F)F)n2)CC1 | 46 |
| Cn1nc(-c2cnc(Nc3ccnc(-c4cnn(CC(F)(F)F)c4)n3)cc2N[C@H]2CC[C@@](C)(O)CC2)cc1C(F)(F)F | 288 |

A: O=S(=O)(C1CC1)n1cc(-c2nccc(Nc3cc(N[C@H]4CC[C@@H](CO)CC4)c(-c4ccn(C5COC5)n4)cn3)n2)cn1
B: C[C@]1(O)CC[C@@H](Nc2cc(Nc3ccnc(-c4cnn(S(=O)(=O)C5CC5)c4)n3)ncc2-n2ccc(C(F)F)n2)CC1
Task item: Sorting ascending by IC50, which comes first: A or B ? State your choice using its label.
Reply: A
(A: 0.6 nM, B: 3.4 nM)
